# System: Staphylococcus aureus
# assayInfo: Antimicrobial activity against methicillin-resistant Staphylococcus aureus ATCC 33592 assessed as bacterial growth inhibitions by CLSI protocol based microdilution method
# Assay type: functional
resultType: MIC (µg/mL)

- structureSmiles: "O=C(O)c1ccc(-n2cc(CNc3cc(Br)cc(C(F)(F)F)c3)c(-c3ccc(C(F)(F)F)cc3)n2)cc1"
  measuredValue: 0.78
- structureSmiles: "O=C(O)c1ccc(-n2cc(CNc3ccc(Cl)c(Cl)c3F)c(-c3ccc(C(F)(F)F)cc3)n2)cc1"
  measuredValue: 0.78
- structureSmiles: "O=C(O)c1ccc(-n2cc(CNc3ccc(Br)cc3)c(-c3ccc(C(F)(F)F)cc3)n2)cc1"
  measuredValue: 1.56
- structureSmiles: "O=C(O)c1ccc(-n2cc(CNc3ccc(F)c(Cl)c3F)c(-c3ccc(C(F)(F)F)cc3)n2)cc1"
  measuredValue: 1.56
- structureSmiles: "O=C(O)c1ccc(-n2cc(CNc3cccc(F)c3)c(-c3ccc(C(F)(F)F)cc3)n2)cc1"
  measuredValue: 3.12
- structureSmiles: "Cc1ccc(NCc2cn(-c3ccc(C(=O)O)cc3)nc2-c2ccc(C(F)(F)F)cc2)cc1Cl"
  measuredValue: 0.78
- structureSmiles: "N#Cc1ccc(NCc2cn(-c3ccc(C(=O)O)cc3)nc2-c2ccc(C(F)(F)F)cc2)cc1C(F)(F)F"
  measuredValue: 0.78
- structureSmiles: "O=C(O)c1ccc(-n2cc(CNc3cc(Cl)c(O)c(Cl)c3)c(-c3ccc(C(F)(F)F)cc3)n2)cc1"
  measuredValue: 50
- structureSmiles: "O=C(O)c1ccc(-n2cc(CNc3cc(Cl)c(F)cc3F)c(-c3ccc(C(F)(F)F)cc3)n2)cc1"
  measuredValue: 1.56
- structureSmiles: "O=C(O)c1ccc(-n2cc(CNc3ccc(F)c(Cl)c3)c(-c3ccc(C(F)(F)F)cc3)n2)cc1"
  measuredValue: 0.78
- structureSmiles: "O=C(O)c1ccc(-n2cc(CNc3ccc(Br)c(Cl)c3)c(-c3ccc(C(F)(F)F)cc3)n2)cc1"
  measuredValue: 0.78
- structureSmiles: "O=C(O)c1ccc(-n2cc(CNc3cc(Cl)c(F)c(Cl)c3F)c(-c3ccc(C(F)(F)F)cc3)n2)cc1"
  measuredValue: 0.78
- structureSmiles: "O=C(O)c1ccc(-n2cc(CNc3cc(Cl)c(F)c(Cl)c3)c(-c3ccc(C(F)(F)F)cc3)n2)cc1"
  measuredValue: 0.78
- structureSmiles: "O=C(O)c1ccc(-n2cc(CNc3cccc(Cl)c3)c(-c3ccc(C(F)(F)F)cc3)n2)cc1"
  measuredValue: 1.56
- structureSmiles: "O=C(O)c1ccc(-n2cc(CNc3cccc(Cl)c3F)c(-c3ccc(C(F)(F)F)cc3)n2)cc1"
  measuredValue: 1.56
- structureSmiles: "NS(=O)(=O)c1ccc(NCc2cn(-c3ccc(C(=O)O)cc3)nc2-c2ccc(C(F)(F)F)cc2)cc1"
  measuredValue: 50
- structureSmiles: "O=C(O)c1ccc(-n2cc(CNc3ccc(F)cc3)c(-c3ccc(C(F)(F)F)cc3)n2)cc1"
  measuredValue: 12.5
- structureSmiles: "O=C(O)c1ccc(-n2cc(CNc3ccc(Cl)c(C(F)(F)F)c3)c(-c3ccc(C(F)(F)F)cc3)n2)cc1"
  measuredValue: 0.78
- structureSmiles: "O=C(O)c1ccc(-n2cc(CNc3ccc(Br)c(C(F)(F)F)c3)c(-c3ccc(C(F)(F)F)cc3)n2)cc1"
  measuredValue: 3.12
- structureSmiles: "O=C(O)c1ccc(-n2cc(CNc3cc(F)c(C(F)(F)F)cc3F)c(-c3ccc(C(F)(F)F)cc3)n2)cc1"
  measuredValue: 0.78
- structureSmiles: "O=C(O)c1ccc(-n2cc(CNc3cc(Cl)cc(C(F)(F)F)c3)c(-c3ccc(C(F)(F)F)cc3)n2)cc1"
  measuredValue: 0.78
- structureSmiles: "O=C(O)c1ccc(-n2cc(CNc3cccc(C(F)(F)F)c3)c(-c3ccc(C(F)(F)F)cc3)n2)cc1"
  measuredValue: 0.78
- structureSmiles: "O=C(O)c1ccc(-n2cc(CNc3cc(C(F)(F)F)ccc3F)c(-c3ccc(C(F)(F)F)cc3)n2)cc1"
  measuredValue: 1.56
- structureSmiles: "O=C(O)c1ccc(-n2cc(CNc3cc(C(F)(F)F)cc(C(F)(F)F)c3)c(-c3ccc(C(F)(F)F)cc3)n2)cc1"
  measuredValue: 0.78
- structureSmiles: "O=C(O)c1ccc(-n2cc(CNc3ccc(Cl)cc3)c(-c3ccc(C(F)(F)F)cc3)n2)cc1"
  measuredValue: 1.56
- structureSmiles: "O=C(O)c1ccc(-n2cc(CNc3cc(Cl)cc(Cl)c3)c(-c3ccc(C(F)(F)F)cc3)n2)cc1"
  measuredValue: 0.78
